System: Smartweed
ASSAY METHOD TEXT: Pre-emergent herbicidal activity
Format: in vivo
CONDITION SUMMARY: Table III; 11.2 kg/h; 2 WAT
ATTRIBUTE MEASURED: pre-emergent herbicidal activity index

Worked set:
{"columns": ["COMPOUND", "REPORTED VALUE"],
 "data": [
  ["O=C(CN(CP(=O)(Oc1ccccc1)Oc1ccccc1)SSC1CCCCC1)OCc1ccccc1 [III]", "0 (0-24% control)"],
  ["O=C(CN(CP(=O)(Oc1ccccc1)Oc1ccccc1)SSCCc1ccccc1)OCc1ccccc1 [IV]", "0 (0-24% control)"],
  ["CCCCCCCCSSN(CC(=O)OC)CP(=O)(Oc1ccccc1)Oc1ccccc1 [II]", "0 (0-24% control)"],
  ["COC(=O)CN(CP(=O)(Oc1ccccc1)Oc1ccccc1)SSC(C)C [I]", "2 (50-74% control)"]
]}

From here, focus on the item given below.
-- ask Given COC(=O)CN(CP(=O)(Oc1ccccc1OC)Oc1ccccc1OC)SSc1cccc(C(F)(F)F)c1 [V] , state its recorded pre-emergent herbicidal activity index.
-- reply 1 (25-49% control)

These entries and their values trace back to patent US4401604A.
